Origin of measurements: the supplement of paper PMC3334620

PBM E-score for assorted sequences
Target: Ybr033w (UniProt P38073)
Sequence: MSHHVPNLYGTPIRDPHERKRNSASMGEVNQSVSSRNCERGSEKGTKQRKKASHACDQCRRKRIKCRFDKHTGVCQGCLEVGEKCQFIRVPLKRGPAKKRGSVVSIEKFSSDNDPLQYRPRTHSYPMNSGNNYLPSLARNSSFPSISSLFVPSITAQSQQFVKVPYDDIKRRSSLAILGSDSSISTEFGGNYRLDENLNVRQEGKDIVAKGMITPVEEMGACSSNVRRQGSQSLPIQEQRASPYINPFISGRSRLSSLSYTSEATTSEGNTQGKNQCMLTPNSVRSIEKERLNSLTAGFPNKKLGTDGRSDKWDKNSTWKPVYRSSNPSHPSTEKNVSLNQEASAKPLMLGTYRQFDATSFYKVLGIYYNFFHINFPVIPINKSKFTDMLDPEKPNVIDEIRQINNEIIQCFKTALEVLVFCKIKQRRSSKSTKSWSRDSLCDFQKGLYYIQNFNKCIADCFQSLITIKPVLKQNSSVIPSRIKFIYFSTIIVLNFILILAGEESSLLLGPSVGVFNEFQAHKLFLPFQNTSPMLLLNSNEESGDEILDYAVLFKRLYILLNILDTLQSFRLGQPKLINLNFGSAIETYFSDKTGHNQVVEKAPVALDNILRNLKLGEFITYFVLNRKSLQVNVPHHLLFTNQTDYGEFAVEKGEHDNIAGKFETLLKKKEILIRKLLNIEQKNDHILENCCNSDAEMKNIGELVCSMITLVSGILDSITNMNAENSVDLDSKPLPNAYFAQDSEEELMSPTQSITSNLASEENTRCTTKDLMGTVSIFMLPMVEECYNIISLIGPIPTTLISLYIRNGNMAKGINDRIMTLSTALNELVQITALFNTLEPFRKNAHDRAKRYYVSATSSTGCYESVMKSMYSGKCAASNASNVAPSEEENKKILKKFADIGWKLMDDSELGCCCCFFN
Assay: PBM E-score (8-mer binding enrichment) (E-score (-0.5 to 0.5)); higher = stronger / more preferred TF binding
Conditions: protein concentration: 200 nM; construct: GST-full length
In all, about 33,000 sequences were measured (“E-score (-0.5 to 0.5)”: median about -0.012, highest 2% from about 0.29 on). The full list was thinned out, with the highest values kept by preference.
Form: value (number only, do not type unit).

Recorded results for 2 sequences are shown here.
AAGTTATA : 0.166
AAGTTTAC : 0.154

Ask | Lab note: need PBM E-score for AAAAAAAC on Ybr033w (UniProt P38073), anyone have it?
Reply | 0.24

Ask | Given the entry AAGTTAAC , what PBM E-score was observed with Ybr033w (UniProt P38073)?
Reply | 0.224

Ask | Notebook entry, Ybr033w (UniProt P38073) assay: PBM E-score of AAGTTTAG = ?
Reply | 0.128

Ask | Notebook: pull reported PBM E-score for Ybr033w (UniProt P38073), entry GAAAAAAC
Reply | 0.265

Ask | Any idea what PBM E-score came out for GAGAAAAA on Ybr033w (UniProt P38073)?
Reply | 0.155

Ask | Report PBM E-score for AAGTTAAG tested on Ybr033w (UniProt P38073).
Reply | -0.149

Ask | Please provide the recorded PBM E-score for AAGTTATT , tested on Ybr033w (UniProt P38073).
Reply | 0.3

Ask | Provide value of PBM E-score for this record tested with Ybr033w (UniProt P38073): AAAAAAAA
Reply | 0.353

Ask | Ybr033w (UniProt P38073) / PBM E-score / AAGTTATG : value?
Reply | 0.206

###

Molecular target: Ybr033w (UniProt P38073)
Sequence: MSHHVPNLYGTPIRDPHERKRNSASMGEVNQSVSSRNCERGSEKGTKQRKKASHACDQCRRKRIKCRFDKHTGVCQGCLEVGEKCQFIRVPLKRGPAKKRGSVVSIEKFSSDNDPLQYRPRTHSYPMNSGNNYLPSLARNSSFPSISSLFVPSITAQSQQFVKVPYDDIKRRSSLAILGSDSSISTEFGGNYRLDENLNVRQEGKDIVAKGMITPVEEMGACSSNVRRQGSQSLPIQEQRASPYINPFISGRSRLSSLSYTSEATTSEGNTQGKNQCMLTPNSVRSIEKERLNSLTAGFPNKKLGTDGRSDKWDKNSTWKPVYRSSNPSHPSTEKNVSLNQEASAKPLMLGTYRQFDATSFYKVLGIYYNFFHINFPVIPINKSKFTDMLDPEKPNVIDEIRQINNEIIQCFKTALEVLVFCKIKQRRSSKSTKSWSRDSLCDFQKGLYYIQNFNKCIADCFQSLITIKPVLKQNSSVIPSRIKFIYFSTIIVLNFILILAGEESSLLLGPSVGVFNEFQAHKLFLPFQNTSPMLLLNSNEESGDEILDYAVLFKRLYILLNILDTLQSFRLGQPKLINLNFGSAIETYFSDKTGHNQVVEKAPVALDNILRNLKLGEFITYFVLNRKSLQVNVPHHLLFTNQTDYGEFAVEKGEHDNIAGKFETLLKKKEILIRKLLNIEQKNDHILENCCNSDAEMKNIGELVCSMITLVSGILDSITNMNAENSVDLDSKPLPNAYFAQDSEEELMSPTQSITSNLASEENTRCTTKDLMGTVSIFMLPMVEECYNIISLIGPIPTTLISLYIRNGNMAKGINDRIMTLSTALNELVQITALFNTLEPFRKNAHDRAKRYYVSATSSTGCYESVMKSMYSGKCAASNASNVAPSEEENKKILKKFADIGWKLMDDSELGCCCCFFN
Assay: PBM E-score (8-mer binding enrichment) (E-score (-0.5 to 0.5)); higher = stronger / more preferred TF binding
Conditions: protein concentration: 200 nM; construct: GST-full length
In all, about 33,000 sequences were measured (“E-score (-0.5 to 0.5)”: median about -0.012, highest 2% from about 0.29 on). Shown is part of a subset that was picked to be rich in the highest values.
Below: a set of entries, each annotated with reported PBM E-score.
Lab note: jot the number down without any unit.

CAGTAATC : -0.0846

Ask | What measured PBM E-score goes with TAGTAATA ?
Reply | 0.241

Ask | // PBM E-score lookup, key: TCTGGGAA
Reply | -0.0142

Ask | I'd like to know its PBM E-score. The sequence in question is CCTAACGA
Reply | -0.0133

Ask | Give its PBM E-score value. Item: ATTTTATC
Reply | 0.325

Ask | Look up PBM E-score: CCCCCCCC
Reply | -0.45

Ask | // returns reported PBM E-score for input GTTTTATA
Reply | 0.0686

Ask | PBM E-score lookup needed for GGCTAGGA , thanks.
Reply | -0.106

Ask | Can you look up the measured PBM E-score of ATTTTATG for me?
Reply | 0.186

Ask | Look up PBM E-score: GGCTACCA
Reply | -0.203

Ask | Look up PBM E-score for this sequence: ATTTTATA
Reply | 0.309

###

Target: Ybr033w (UniProt P38073)
Sequence: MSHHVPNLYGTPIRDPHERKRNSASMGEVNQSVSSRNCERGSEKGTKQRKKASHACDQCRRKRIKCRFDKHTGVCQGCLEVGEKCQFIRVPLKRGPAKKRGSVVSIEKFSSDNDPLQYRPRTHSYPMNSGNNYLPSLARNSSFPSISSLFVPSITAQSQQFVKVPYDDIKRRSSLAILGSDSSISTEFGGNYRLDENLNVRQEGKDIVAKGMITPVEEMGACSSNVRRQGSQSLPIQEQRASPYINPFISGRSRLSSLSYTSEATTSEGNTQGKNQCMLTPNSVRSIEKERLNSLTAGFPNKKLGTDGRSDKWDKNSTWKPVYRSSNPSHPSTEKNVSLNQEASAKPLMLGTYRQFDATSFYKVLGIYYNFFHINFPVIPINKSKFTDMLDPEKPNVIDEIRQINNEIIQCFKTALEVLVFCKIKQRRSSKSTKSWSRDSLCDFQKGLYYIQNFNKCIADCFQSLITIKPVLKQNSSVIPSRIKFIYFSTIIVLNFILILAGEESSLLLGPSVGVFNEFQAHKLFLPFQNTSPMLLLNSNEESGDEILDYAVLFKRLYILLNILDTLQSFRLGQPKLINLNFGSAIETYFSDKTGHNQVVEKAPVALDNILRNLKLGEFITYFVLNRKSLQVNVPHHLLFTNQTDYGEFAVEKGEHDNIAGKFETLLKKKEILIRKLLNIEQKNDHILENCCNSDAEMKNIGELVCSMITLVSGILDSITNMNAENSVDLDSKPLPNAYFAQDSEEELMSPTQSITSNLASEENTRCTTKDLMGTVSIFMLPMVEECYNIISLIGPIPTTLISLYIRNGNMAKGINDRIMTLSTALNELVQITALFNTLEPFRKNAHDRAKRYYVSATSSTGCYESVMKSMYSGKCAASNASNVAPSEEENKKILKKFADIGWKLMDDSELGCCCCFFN
Assay: PBM E-score (8-mer binding enrichment) (E-score (-0.5 to 0.5)); higher = stronger / more preferred TF binding
Conditions: protein concentration: 200 nM; construct: GST-full length
The full ranking holds about 33,000 sequences; the median of “E-score (-0.5 to 0.5)” is about -0.012, and the highest 2% start at about 0.29. The entries come from a sample that favours the highest values as a whole.
Below is a list of entries, each paired with its recorded PBM E-score value.
# answer = number (no unit)

Reference set (3 entries):
CTTATTTA : 0.106
ACTATTCG : 0.177
AAACATCC : 0.192

Ask | Test system Ybr033w (UniProt P38073); read-out PBM E-score; what value for GTGTTTGA ?
Reply | 0.191

Ask | Please provide the recorded PBM E-score for TCGTTGAA , tested on Ybr033w (UniProt P38073).
Reply | 0.122
